Data origin, for the record: the Deep4Chem optical property database

# Method: photoluminescence quantum yield (fraction); solvent given as SMILES
# Conditions: in c1cc(-n2c3ccccc3c3ccccc32)cc(-n2c3ccccc3c3ccccc32)c1
Measurement Kind: photoluminescence quantum yield
Lab note: jot the number down without any unit.

{"Smiles Structure": "c1ccc(N(c2ccccc2)c2ccc(-c3ccc4c(c3)C3(c5ccccc5Sc5ccccc53)c3cc(-c5ccc(N(c6ccccc6)c6ccccc6)cc5)ccc3-4)cc2)cc1", "Measurement Kind": "photoluminescence quantum yield", "Observed Result": 0.88}
{"Smiles Structure": "O=S1(=O)c2ccccc2C2(c3cc(-c4ccc(-n5c6ccccc6c6ccccc65)cc4)ccc3-c3ccc(-c4ccc(-n5c6ccccc6c6ccccc65)cc4)cc32)c2ccccc21", "Measurement Kind": "photoluminescence quantum yield", "Observed Result": 0.86}
{"Smiles Structure": "O=C(c1ccccc1)c1cc2ccc1CCc1ccc(c(-c3ccc(N(c4ccccc4)c4ccccc4)cc3)c1)CC2", "Measurement Kind": "photoluminescence quantum yield", "Observed Result": 0.15}
{"Smiles Structure": "O=S1(=O)c2ccccc2C2(c3cc(-c4ccc(N(c5ccccc5)c5ccccc5)cc4)ccc3-c3ccc(-c4ccc(N(c5ccccc5)c5ccccc5)cc4)cc32)c2ccccc21", "Measurement Kind": "photoluminescence quantum yield", "Observed Result": 0.9}

Query molecule follows.
May I ask what photoluminescence quantum yield has been recorded for c1ccc(N(c2ccccc2)c2ccc(-c3ccc4c(c3)C3(c5cc(-c6ccc(N(c7ccccc7)c7ccccc7)cc6)ccc5O4)c4ccccc4-c4ccccc43)cc2)cc1 ? 0.45

---

# Method: photoluminescence quantum yield (fraction); solvent given as SMILES
# Conditions: in C1CCOC1
Below, each of the molecules is paired with its reported photoluminescence quantum yield value.

{"Molecule": "C(=C\\c1nc2ccccc2[nH]1)/c1ccc(-c2nc3c4cccnc4c4ncccc4c3[nH]2)cc1", "photoluminescence quantum yield": 0.11}
{"Molecule": "COC(=O)C(Cc1ccc2oc(-c3ccc(N(C)c4ccccc4)cc3)nc2c1)NC(=O)OC(C)(C)C (stereo not drawn)", "photoluminescence quantum yield": 0.27}

Query molecule follows.
May I ask what photoluminescence quantum yield has been recorded for CCCCCCC1(CCCCCC)c2cc(-c3nc(-c4ccc5c(c4)C(CCCCCC)(CCCCCC)c4cc(N6c7ccccc7Oc7ccccc76)ccc4-5)nc(-c4ccc5c(c4)C(CCCCCC)(CCCCCC)c4cc(N6c7ccccc7Oc7ccccc76)ccc4-5)n3)ccc2-c2ccc(N3c4ccccc4Oc4ccccc43)cc21 ? 0.02

---

Below, each of the compounds is paired with its reported photoluminescence quantum yield value.
# Method: photoluminescence quantum yield (fraction); solvent given as SMILES
# Conditions: in Cc1ccccc1
Lab note: jot the number down without any unit.

{"Smiles Structure": "Cc1cc(-n2c3ccccc3c3cc4c(cc32)C2c3ccccc3C4c3ccccc32)c(C)cc1-c1nc(-c2ccccc2)nc(-c2ccccc2)n1", "Observed Result": 0.46}

May I ask what photoluminescence quantum yield has been recorded for CCCC1=Cc2nc1ccc1[nH]c(cc1CCC)c1nc(c(NC(=O)CCCC(=O)OC)cc3[nH]c2cc3CCC)C(CCC)=C1 ? 0.2

Next entry: CCCCCCC1(CCCCCC)c2cc(-c3nc(-c4ccc5c(c4)C(CCCCCC)(CCCCCC)c4cc(N6c7ccccc7Oc7ccccc76)ccc4-5)nc(-c4ccc5c(c4)C(CCCCCC)(CCCCCC)c4cc(N6c7ccccc7Oc7ccccc76)ccc4-5)n3)ccc2-c2ccc(N3c4ccccc4Oc4ccccc43)cc21 0.45

---

# Method: photoluminescence quantum yield (fraction); solvent given as SMILES
# Conditions: in C1CCCCC1
Measurement Kind: photoluminescence quantum yield
Lab note: jot the number down without any unit.

// known answers, use as guide
{"Smiles Structure": "CC1=[N+]2C(=C(Oc3cc(C)c4c(c3)CC[C@@](C)(CCC[C@H](C)CCC[C@H](C)CCCC(C)C)O4)c3ccc(C)n3[B-]2(F)F)C=C1c1cc2n(c1)[B-](F)(F)[N+]1=CC=CC1=C2c1c(C)cc(C)cc1C", "Observed Result": 0.45}
{"Smiles Structure": "C=Cc1ccc(OC)c(OC)c1", "Observed Result": 0.32}
{"Smiles Structure": "CNC1=C2C=CC=[N+]2[B-](F)(F)n2cccc21", "Observed Result": 0.7}
{"Smiles Structure": "CCCCN1c2ccccc2Sc2cc(/C=C/C3=Nc4ccc5ccccc5c4C3(C)C)ccc21", "Observed Result": 0.09}
{"Smiles Structure": "CCCC1(CCC)c2cc(-c3ccccc3)ccc2-c2ccc(-c3ccc4c(c3)C(CCC)(CCC)c3cc(-c5ccccc5)ccc3-4)cc21", "Observed Result": 1}
{"Smiles Structure": "C/C(=C\\c1ccccc1)c1nc2ccccc2o1", "Observed Result": 0.007}
{"Smiles Structure": "C[Si](C)(C)[Si](C)(C)c1cccc2cc3ccccc3cc12", "Observed Result": 0.38}
{"Smiles Structure": "COc1cc(/C=C/C(=O)CC(=O)/C=C/c2ccc(O)c(OC)c2)ccc1O", "Observed Result": 0.014}
{"Smiles Structure": "Cc1cccc(C2=CC3=C(c4c(C)cc(C)cc4C)c4cc(-c5cccc(C)c5)c(-c5cccc(C)c5)n4[B-](F)(F)[N+]3=C2c2cccc(C)c2)c1", "Observed Result": 0.41}
{"Smiles Structure": "O=S1(=O)c2ccccc2-c2cc(-c3c4ccccc4cc4ccccc34)ccc21", "Observed Result": 0.36}

May I ask what photoluminescence quantum yield has been recorded for c1cc2ccc1CCCc1cc3c(cc1CCCc1ccc(c4nsnc14)CCC3)CCC2 ? 0.12

Next entry: CC1=[N+]2C(=C(c3ccc(Br)cc3)c3ccc(C)n3[B-]2(F)F)C=C1c1cc2n(c1)[B-](F)(F)[N+]1=CC=CC1=C2c1c(C)cc(C)cc1C 0.85

Next entry: C[Si](C)(c1c2ccccc2cc2ccccc12)[Si](C)(C)c1c2ccccc2cc2ccccc12 0.07

Next entry: CN(C)c1ccc(/C=C/c2nc3ccc(N(C)C)cc3oc2=O)cc1 0.57

Next entry: O=C1Cc2cc3c(cc2CCCc2ccc(cc2)CCC3)CC(=O)Cc2ccc(c3nsnc23)C1 0.13

Next entry: COC(=O)c1ccc(C2=C3C=CC(C)=[N+]3[B-](F)(F)n3c(C)ccc32)cc1 0.073

Next entry: COc1ccc(C2=C3C=CC(C)=[N+]3[B-](F)(F)n3c(C)ccc32)cc1 0.42

Next entry: CCc1c(C)c2n(c1C)[B-](F)(F)[N+]1=C(C=C3C=Cc4ccccc43)C=CC1=C2C 0.02

---

# Method: photoluminescence quantum yield (fraction); solvent given as SMILES
# Conditions: in Cc1ccccc1
Measurement Kind: photoluminescence quantum yield
Lab note: jot the number down without any unit.

// known answers, use as guide
{"Smiles Structure": "CCCCOC(=O)c1cc(Cl)c2c3c(Cl)cc4c5c(cc(Cl)c(c6c(Oc7ccc(C(=O)OC)cc7)cc(C(=O)OCCCC)c1c26)c53)C(=O)N(c1c(C(C)C)cccc1C(C)C)C4=O", "Observed Result": 0.92}
{"Smiles Structure": "c1ccc2c(c1)c1ccccc1n2-c1ccc(-c2ccc(-c3ccc(-n4c5ccccc5c5ccccc54)nc3-n3c4ccccc4c4ccccc43)nn2)c(-n2c3ccccc3c3ccccc32)n1", "Observed Result": 0.36}
{"Smiles Structure": "Cc1ccc(C2=C3C=CC(C#Cc4ccccc4)=[N+]3[B-](F)(F)n3c(C#Cc4ccccc4)ccc32)cc1", "Observed Result": 1}

May I ask what photoluminescence quantum yield has been recorded for CCCC1=Cc2nc1ccc1[nH]c(cc1CCC)c1nc(c(OCc3ccc(C(=O)O)cc3)cc3[nH]c2cc3CCC)C(CCC)=C1 ? 0.21

Next entry: c1cc2c3c(c1)-c1ccc4c5c(ccc(c15)B3c1ccc3c5c(ccc-2c15)CC3)CC4 0.79

Next entry: N#Cc1c(-n2c3ccccc3c3ccccc32)c(-n2c3ccc(-c4ccccc4)cc3c3cc(-c4ccccc4)ccc32)c(-n2c3ccccc3c3ccccc32)c(-n2c3ccc(-c4ccccc4)cc3c3cc(-c4ccccc4)ccc32)c1-n1c2ccccc2c2ccccc21 0.81

---

# Method: photoluminescence quantum yield (fraction); solvent given as SMILES
# Conditions: in ClCCl
# if value of photoluminescence quantum yield reaches 0.5, tag true (1); if it stays below, tag false (0)

{"Molecule": "COc1cc2cc(OC)c(C#Cc3ccc([N+](=O)[O-])cc3)cc2cc1C#Cc1ccc([N+](=O)[O-])cc1", "Label Value": "false (0)"}
{"Molecule": "O=C1c2ccccc2C2=Nc3ccc4ccccc4[n+]3[B-](F)(F)N12", "Label Value": "true (1)"}
{"Molecule": "CCCCCCN(CCCCCC)c1ccc(C#Cc2c(F)c(F)c(F)c(F)c2F)cc1", "Label Value": "false (0)"}
{"Molecule": "CCOC(=O)c1ccc(C2=Cc3ccccc3P2(=O)c2ccccc2)cc1 (stereo unspecified)", "Label Value": "true (1)"}
{"Molecule": "O=C1c2cccc3cc(C#CC#Cc4cc5c6c(cccc6c4)C(=O)N(c4ccccc4)C5=O)cc(c23)C(=O)N1c1ccccc1", "Label Value": "true (1)"}

Is photoluminescence quantum yield at least 0.5? Consider CCN(CC)c1ccc([N+]2=Cc3ccc4c5c(ccc4c3O[B-]2(c2c(F)c(F)c(F)c(F)c2F)c2c(F)c(F)c(F)c(F)c2F)C=[N+](c2ccc(N(CC)CC)cc2)[B-](c2c(F)c(F)c(F)c(F)c2F)(c2c(F)c(F)c(F)c(F)c2F)O5)cc1 false (0)

Next entry: CCCSC1=[N+]2C(=C(c3ccccc3)c3ccc(SCCC)n3[B-]2(F)F)C=C1 false (0)
